System: NCI-H522
PROTOCOL_SUMMARY: NCI tumour cell line growth inhibition, 48 h
Active and inactive are the calls of the source. No stated cut-off is given here; in the data, active = GI50 up to about 1.1 µM and inactive = higher.
Each record here notes measured GI50.
REPORTED_ENDPOINT: GI50

Cc1cccc(C)c1NC(=O)CCC(=O)CC(=O)C(C)C | > 100 µM (inactive)
O=C1NC(=O)c2ccc([N+](=O)[O-])c3cccc1c23 | 2.01 µM (inactive)
O=C1c2ccccc2C(=O)N1Cc1ccccc1-c1c2nc(c(-c3ccccc3CN3C(=O)c4ccccc4C3=O)c3ccc([nH]3)c(-c3ccccc3CN3C(=O)c4ccccc4C3=O)c3nc(c(-c4ccccc4CN4C(=O)c5ccccc5C4=O)c4ccc1[nH]4)C=C3)C=C2 | > 100 µM (inactive)
COC(=O)C(=O)C(C(=O)C(=O)Nc1ccc(C)cc1C)c1nc2ccccc2nc1O (stereo not given) | 25 µM (inactive)
C=CC(O)(CBr)CCC(Br)C(=C)C (stereo not given) | > 10 µM (inactive)
